System: Common Cutworm (Spodoptera litura)
Experiment: whole plant or invertebrate
Details: Spodoptera litura, in Brassica oleracea, foliar
mortality at 25 ppm values, listed per item
Outcome measure: mortality at 25 ppm (%)

• Nc1nc(N)nc(NC2CC2)n1 = 30
• OCC1=C[C@H](N[C@H]2C[C@H](CO)[C@@H](O[C@@H]3O[C@H](CO)[C@@H](O)[C@H](O)[C@H]3O)[C@H](O)[C@H]2O)[C@H](O)[C@@H](O)[C@@H]1O = 0
• C/C(=N\C#N)N(C)Cc1ccc(Cl)nc1 = 10
• CCOP(=O)(SC(C)CC)N1CCSC1=O (centres unmarked) [Fosthiazate, fosthiazate] = 88
• CC(C)=CC1C(C(=O)OCc2cccc(Oc3ccccc3)c2)C1(C)C (centres unmarked) = 80
